Attribution: ChEMBL document CHEMBL4251614

Entries and their IC50
target: Receptor-type tyrosine-protein phosphatase zeta (Homo sapiens); experiment: Inhibition of human recombinant PTPRZ1 using pNPP as substrate by fluorescence spectrometric analysis
Sequence (P23471 whole entry): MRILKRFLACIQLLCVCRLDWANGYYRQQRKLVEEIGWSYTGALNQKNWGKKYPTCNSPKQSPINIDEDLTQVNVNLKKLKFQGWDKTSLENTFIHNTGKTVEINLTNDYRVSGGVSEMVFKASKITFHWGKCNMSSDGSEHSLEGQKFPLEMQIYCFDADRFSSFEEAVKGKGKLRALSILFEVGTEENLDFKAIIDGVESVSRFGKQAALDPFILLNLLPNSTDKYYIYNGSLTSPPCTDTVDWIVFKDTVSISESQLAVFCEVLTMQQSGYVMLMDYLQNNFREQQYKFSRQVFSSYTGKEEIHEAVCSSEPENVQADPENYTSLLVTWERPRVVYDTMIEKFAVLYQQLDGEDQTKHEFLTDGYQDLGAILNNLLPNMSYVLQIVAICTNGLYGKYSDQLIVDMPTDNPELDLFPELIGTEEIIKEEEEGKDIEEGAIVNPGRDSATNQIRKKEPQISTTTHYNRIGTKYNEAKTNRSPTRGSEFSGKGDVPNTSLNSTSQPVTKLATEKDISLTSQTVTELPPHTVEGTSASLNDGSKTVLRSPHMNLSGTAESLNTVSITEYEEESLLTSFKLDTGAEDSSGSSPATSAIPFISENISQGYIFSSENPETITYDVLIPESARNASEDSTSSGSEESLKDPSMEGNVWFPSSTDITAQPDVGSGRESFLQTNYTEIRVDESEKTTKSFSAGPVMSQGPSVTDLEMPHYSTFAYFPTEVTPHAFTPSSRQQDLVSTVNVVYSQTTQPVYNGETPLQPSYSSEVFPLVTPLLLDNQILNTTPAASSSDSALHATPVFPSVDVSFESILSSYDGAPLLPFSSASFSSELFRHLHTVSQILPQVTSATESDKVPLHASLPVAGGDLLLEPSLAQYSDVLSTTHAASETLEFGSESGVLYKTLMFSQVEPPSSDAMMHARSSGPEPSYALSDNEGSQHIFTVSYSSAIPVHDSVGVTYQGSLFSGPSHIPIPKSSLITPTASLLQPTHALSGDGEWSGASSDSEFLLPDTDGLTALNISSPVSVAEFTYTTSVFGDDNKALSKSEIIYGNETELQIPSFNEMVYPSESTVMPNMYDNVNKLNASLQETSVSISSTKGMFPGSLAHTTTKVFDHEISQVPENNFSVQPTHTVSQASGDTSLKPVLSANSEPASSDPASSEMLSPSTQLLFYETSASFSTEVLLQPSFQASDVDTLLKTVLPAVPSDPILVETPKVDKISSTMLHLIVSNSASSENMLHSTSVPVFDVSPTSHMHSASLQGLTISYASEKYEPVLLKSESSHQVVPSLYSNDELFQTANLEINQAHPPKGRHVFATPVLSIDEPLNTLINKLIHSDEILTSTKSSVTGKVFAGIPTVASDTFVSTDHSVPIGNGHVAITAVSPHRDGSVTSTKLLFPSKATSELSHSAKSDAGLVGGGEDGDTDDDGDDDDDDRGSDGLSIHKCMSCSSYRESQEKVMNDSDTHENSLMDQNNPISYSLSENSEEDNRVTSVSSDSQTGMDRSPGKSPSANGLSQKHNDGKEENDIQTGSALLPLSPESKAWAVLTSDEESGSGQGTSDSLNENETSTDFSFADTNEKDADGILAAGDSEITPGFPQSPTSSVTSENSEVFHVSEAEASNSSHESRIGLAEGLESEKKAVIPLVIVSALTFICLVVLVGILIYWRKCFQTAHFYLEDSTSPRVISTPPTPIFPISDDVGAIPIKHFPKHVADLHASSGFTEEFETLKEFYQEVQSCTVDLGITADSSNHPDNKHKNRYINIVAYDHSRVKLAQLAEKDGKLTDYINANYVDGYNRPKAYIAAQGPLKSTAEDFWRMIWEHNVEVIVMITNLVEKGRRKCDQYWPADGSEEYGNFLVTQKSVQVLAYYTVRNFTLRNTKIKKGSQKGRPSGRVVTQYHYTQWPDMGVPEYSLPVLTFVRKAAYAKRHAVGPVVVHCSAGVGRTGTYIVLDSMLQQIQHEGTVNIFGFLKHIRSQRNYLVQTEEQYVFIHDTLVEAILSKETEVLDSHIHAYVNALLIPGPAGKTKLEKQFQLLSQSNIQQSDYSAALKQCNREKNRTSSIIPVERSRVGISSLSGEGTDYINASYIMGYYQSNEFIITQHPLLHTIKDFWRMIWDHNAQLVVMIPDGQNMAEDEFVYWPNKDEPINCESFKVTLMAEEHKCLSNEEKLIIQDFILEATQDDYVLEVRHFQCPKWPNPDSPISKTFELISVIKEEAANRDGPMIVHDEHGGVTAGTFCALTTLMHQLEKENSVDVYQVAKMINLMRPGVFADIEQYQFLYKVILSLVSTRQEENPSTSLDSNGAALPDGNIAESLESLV

Look over these answered cases.
Query smiles | Data value
O=C(Cc1ccc(SC(F)(F)F)cc1)NCc1ccc(SC(F)(F)F)cc1 | 800 nM
FC(F)(F)Sc1ccc(COc2ccc(SC(F)(F)F)cc2)cc1 | 100 nM
O=C(NCc1ccc(SC(F)(F)F)cc1)c1ccc(SC(F)(F)F)cc1 | > 100000 nM
FC(F)(F)Sc1ccc(NCc2ccccc2)cc1 | 5000 nM
FC(F)(F)Sc1ccc(CNCc2ccc(SC(F)(F)F)cc2)cc1 | 100 nM

Data request: Item O=C(Cc1ccc(S(=O)(=O)C(F)(F)F)cc1)Nc1ccc(S(=O)(=O)C(F)(F)F)cc1 : provide IC50
Data returned: > 10000 nM
